Exercise: for every item that follows, state its recorded c-jun mRNA % CONTROL.
Tested on: c-jun mRNA
EXPERIMENT NOTES: c-jun mRNA expression in TPA-induced A549 cells, Northern blotting
Type: cell-based, human
PARTICULARS: 400 nM oligonucleotide with LIPOFECTIN; control is TPA induction, at 1 hour, in A549 cells
Strand notation (5' to 3'): a small letter for the sugar, then the base; units joined by * are phosphorothioate-linked, units joined directly phosphodiester-linked; [ ] holds rarer units or linkages, { } end groups; capitals alone tell only the bases. d = 2'-deoxy (DNA)
Numbers only, in % CONTROL.

GCT-GCG-CCG-CCG-ACG-TGA-CG (dG*dC*dT*dG*dC*dG*dC*dC*dG*dC*dC*dG*dA*dC*dG*dT*dG*dA*dC*dG; antisense) [ISIS 10578] :: 37
GTG-TCT-CGC-CGG-GCA-TCT-CG (dG*dT*dG*dT*dC*dT*dC*dG*dC*dC*dG*dG*dG*dC*dA*dT*dC*dT*dC*dG; antisense) [ISIS 10580] :: 19

Turning now to a further record.
For GCC-ACA-CTC-AGT-GCA-ACT-CT (dG*dC*dC*dA*dC*dA*dC*dT*dC*dA*dG*dT*dG*dC*dA*dA*dC*dT*dC*dT; antisense) [ISIS 10570] on c-jun mRNA, measured c-jun mRNA % CONTROL was 62
